TARGET_OR_TEST_SYSTEM: T1, Full-length bovine RIα (bovine, UniProt P00514 1-380)
T1 construct: mature; given as full-length
T1 sequence (P00514 whole entry): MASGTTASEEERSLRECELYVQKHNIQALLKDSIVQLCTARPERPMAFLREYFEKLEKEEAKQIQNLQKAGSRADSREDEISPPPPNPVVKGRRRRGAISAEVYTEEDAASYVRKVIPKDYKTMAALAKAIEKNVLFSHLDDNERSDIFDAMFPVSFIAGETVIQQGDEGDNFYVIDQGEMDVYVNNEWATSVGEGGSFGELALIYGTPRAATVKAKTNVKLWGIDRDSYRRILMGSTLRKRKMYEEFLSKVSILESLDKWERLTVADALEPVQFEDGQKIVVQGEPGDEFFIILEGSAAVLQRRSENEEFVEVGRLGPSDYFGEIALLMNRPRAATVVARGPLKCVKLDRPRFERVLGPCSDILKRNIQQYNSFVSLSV
ASSAY_DETAILS: fluorescence anisotropy, labeled peptide
Ends that are not written are not given here.
EXPERIMENTAL_ENDPOINT: pKd
Answers are plain numbers, as −log10 of the molar value.

Hi there! I need pKd for each item below, if you can.
1. FEELAWKIAKMIISDVFQQC(tetramethylrhodamine‑5‑maleimide)-NH2 [PV-49 (SEQ ID NO:107) FEELAWKIAKMIISDVFQQC, rhodamine-labeled]
2. FEELAWKIAKMIWSDVFQQC(tetramethylrhodamine‑5‑maleimide)-NH2 (also called PV-38; RIα-specific (Q9F, V21W, M25F)) [AKB (RI), RI specific (SEQ ID NO:103) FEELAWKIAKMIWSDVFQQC, rhodamine-labeled]
3. FEELAWKIAKMIWSDVMQQC(tetramethylrhodamine‑5‑maleimide)-NH2 [PV-37 (SEQ ID NO:104) FEELAWKIAKMIWSDVMQQC, rhodamine-labeled]

Output line:
1: 8.96; 2: 8.28; 3: 7.72
